molecular target: 5-HT2A receptor (Homo sapiens, UniProt P28223); construct: expressed in transfected cells; host or cells: CHO cell line; assay: Radioligand binding to the 5-HT2A receptor ([125I]-DOI, CHO cell line)
Sequence (P28223 whole entry): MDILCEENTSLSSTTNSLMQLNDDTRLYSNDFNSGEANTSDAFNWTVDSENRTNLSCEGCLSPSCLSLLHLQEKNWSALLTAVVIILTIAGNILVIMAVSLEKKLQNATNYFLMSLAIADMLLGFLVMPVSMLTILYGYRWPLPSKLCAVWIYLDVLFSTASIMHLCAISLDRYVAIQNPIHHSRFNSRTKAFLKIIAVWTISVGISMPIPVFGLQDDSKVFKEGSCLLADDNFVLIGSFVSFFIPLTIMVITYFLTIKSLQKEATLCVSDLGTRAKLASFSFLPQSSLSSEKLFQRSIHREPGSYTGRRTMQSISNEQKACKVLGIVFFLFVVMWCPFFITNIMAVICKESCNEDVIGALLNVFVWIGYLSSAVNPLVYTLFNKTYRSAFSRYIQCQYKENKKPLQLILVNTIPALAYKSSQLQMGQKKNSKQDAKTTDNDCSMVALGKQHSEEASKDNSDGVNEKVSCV
pKi: −log10 of the molar value.
Rule: Met for pKi not less than 7, Not met for anything less.

Compound | Target desc | Label value
CC(N)Cn1c2c(c3cc(F)c(F)cc31)CCC2 (stereo not drawn) | 5-HT2A receptor (Homo sapiens, UniProt P28223) | Not met
C[C@H](N)Cn1c2c(c3ccccc31)CCC2 | 5-HT2A receptor (Homo sapiens, UniProt P28223) | Not met
COc1ccc2c3c(n(C[C@H](C)N)c2c1)CCC3 | 5-HT2A receptor (Homo sapiens, UniProt P28223) | Not met
C[C@@H](N)Cn1c2c(c3ccccc31)CCC2 | 5-HT2A receptor (Homo sapiens, UniProt P28223) | Met

###

molecular target: h5-HT2A receptors (Homo sapiens, UniProt P28223); test: Functional activity, FLIPR calcium assay in CHO cells expressing h5-HT2A; details: FLIPR, CHO cells
pEC50: −log10 of the molar value.
Items are presented alongside their recorded pEC50.
Recorded endpoint: pEC50

Item smiles | Recorded endpoint | Reported
C[C@@H](N)Cn1c2c(c3ccccc31)CCC2 | pEC50 | 6.44
C[C@H](N)Cn1c2c(c3c(Cl)c(F)ccc31)CCC2 | pEC50 | 5.68
COc1c(F)ccc2c1c1c(n2C[C@H](C)N)CCC1 | pEC50 | 6.09
COc1ccc2c3c(n(C[C@H](C)N)c2c1)CCC3 | pEC50 | 5.77
COc1cc2c(cc1F)c1c(n2C[C@H](C)N)CCC1 | pEC50 | 5.52
C[C@H](N)Cn1c2c(c3ccccc31)CCC2 | pEC50 | 5.20

###

target: human 5-HT2B receptors (Homo sapiens); construct: expressed in transfected cells; host or cells: CHO cell line; experiment: Radioligand binding to the 5-HT2B receptor ([3H]-5-HT, CHO cell line)
Sequence (P41595 whole entry): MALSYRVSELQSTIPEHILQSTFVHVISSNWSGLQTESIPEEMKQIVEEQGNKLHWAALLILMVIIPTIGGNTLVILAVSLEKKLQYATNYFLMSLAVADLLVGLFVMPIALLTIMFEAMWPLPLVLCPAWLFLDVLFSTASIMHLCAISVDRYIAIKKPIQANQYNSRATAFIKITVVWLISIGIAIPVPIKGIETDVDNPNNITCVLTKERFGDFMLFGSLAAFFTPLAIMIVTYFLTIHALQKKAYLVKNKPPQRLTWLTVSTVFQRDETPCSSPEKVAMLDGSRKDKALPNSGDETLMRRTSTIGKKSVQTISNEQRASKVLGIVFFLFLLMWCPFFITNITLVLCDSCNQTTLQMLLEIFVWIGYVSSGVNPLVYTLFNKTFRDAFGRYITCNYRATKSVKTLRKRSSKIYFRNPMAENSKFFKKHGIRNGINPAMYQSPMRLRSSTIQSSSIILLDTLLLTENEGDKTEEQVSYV
Counter-ions that a name gives are not always drawn.

Molecule | Target desc | Ki / nM
C[C@@H](N)Cn1c2c(c3ccccc31)CCC2 | human 5-HT2B receptors (Homo sapiens) | 31
COc1cc2c(cc1F)c1c(n2C[C@H](C)N)CCC1 | human 5-HT2B receptors (Homo sapiens) | 65
C[C@H](N)Cn1c2c(c3ccccc31)CCC2 | human 5-HT2B receptors (Homo sapiens) | 180
C[C@H](N)Cn1c2c(c3c(F)c(F)ccc31)CCC2 [Example 1, fumarate] | human 5-HT2B receptors (Homo sapiens) | 40
COc1ccc2c3c(n(C[C@H](C)N)c2c1)CCC3 | human 5-HT2B receptors (Homo sapiens) | 210
CC(N)Cn1c2c(c3cc(F)c(F)cc31)CCC2 (stereo not drawn) | human 5-HT2B receptors (Homo sapiens) | 152

###

target: human 5-HT2B receptors (Homo sapiens); construct: expressed in transfected cells; host or cells: CHO cell line; assay: Radioligand binding to the 5-HT2B receptor ([3H]-5-HT, CHO cell line); conditions: [3H]-5-HT, human receptor, CHO cell line; read-out: Ki(2B)
Ki values, listed per item
Recorded endpoint: Ki (nM)

Item smiles | Target desc | Scale unit | Reported
C[C@@H](N)Cn1c2c(c3cccc(Cl)c31)CCC2 | human 5-HT2B receptors (Homo sapiens) | nM | 162
CCSc1ccc2c3c(n(C[C@H](C)N)c2c1)CCC3 | human 5-HT2B receptors (Homo sapiens) | nM | 496
C[C@H](N)Cn1c2c(c3ccc(F)cc31)CCC2 | human 5-HT2B receptors (Homo sapiens) | nM | 161
C[C@H](N)Cn1c2c(c3c(Cl)cc(Cl)cc31)CCC2 | human 5-HT2B receptors (Homo sapiens) | nM | 127

###

target: 5-HT2C receptor (Homo sapiens, UniProt P28335); construct: expressed in transfected cells; host or cells: CHO cell line; assay: Radioligand binding to the 5-HT2C receptor ([3H]-5-HT, CHO cell line); conditions: [3H]-5-HT, CHO cell line; read-out: Ki(2C)
pKi: −log10 of the molar value.
Recorded endpoint: pKi

Compound | Target desc | Reported
C[C@H](N)Cn1c2c(c3c(Cl)cc(Cl)cc31)CCC2 [Example 26] | 5-HT2C receptor (Homo sapiens, UniProt P28335) | 6.97
CCSc1ccc2c3c(n(C[C@H](C)N)c2c1)CCC3 [Example 27] | 5-HT2C receptor (Homo sapiens, UniProt P28335) | 6.85

###

This section presents molecules with their documented melting point values.
Where a name gives a salt, the structure may show the parent alone.

Molecule | Scale unit | melting point
COc1ccc2c3c(n(C[C@H](C)N)c2c1)CCC3 (as salt: fumarate) | °C | 182
C[C@H](N)Cn1c2c(c3c(Cl)cc(Cl)cc31)CCC2 (as salt: hydrochloride) (hydrate or solvate) | °C | 258
C[C@H](N)Cn1c2c(c3ccccc31)CCC2 (as salt: hydrochloride) (hydrate or solvate) | °C | 233

###

Molecular target: h5-HT2C (Homo sapiens, UniProt P28335)
Sequence (P28335 33-458): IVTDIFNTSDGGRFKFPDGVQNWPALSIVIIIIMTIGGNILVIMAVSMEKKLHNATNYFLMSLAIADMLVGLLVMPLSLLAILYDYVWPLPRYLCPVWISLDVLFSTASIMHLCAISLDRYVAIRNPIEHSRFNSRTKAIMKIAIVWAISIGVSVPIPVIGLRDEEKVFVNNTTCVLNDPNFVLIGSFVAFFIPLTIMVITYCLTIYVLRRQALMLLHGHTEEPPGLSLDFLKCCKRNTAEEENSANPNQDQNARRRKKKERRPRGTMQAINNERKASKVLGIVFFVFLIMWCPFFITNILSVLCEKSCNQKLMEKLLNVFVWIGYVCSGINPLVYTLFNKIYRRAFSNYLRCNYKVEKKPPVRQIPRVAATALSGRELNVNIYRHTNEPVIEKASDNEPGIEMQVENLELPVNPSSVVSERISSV
Experiment: Functional activity, FLIPR calcium assay in CHO cells expressing h5-HT2C
Settings: FLIPR, CHO cells
pEC50: −log10 of the molar value. Counter-ions that a name gives are not always drawn.
pEC50 listing for selected molecules.
Recorded endpoint: pEC50

Molecule | Reported
C[C@H](N)Cn1c2c(c3ccccc31)CCC2 [Example 14] | 6.60
CC(N)Cn1c2c(c3cc(F)c(F)cc31)CCC2 (centres unmarked) [Example 33] | 6.50
C[C@H](N)Cn1c2c(c3cc(F)ccc31)CCC2 [Example 2] | 6.46
COc1c(F)ccc2c1c1c(n2C[C@H](C)N)CCC1 [Example 42] | 7.06
C[C@H](N)Cn1c2c(c3c(Cl)c(F)ccc31)CCC2 [Example 18] | 7.44
C[C@H](N)Cn1c2c(c3cc(F)c(Cl)cc31)CCC2 [Example 16] | 6.51
C[C@@H](N)Cn1c2c(c3ccccc31)CCC2 [Example 30] | 7.05
COc1ccc2c3c(n(C[C@H](C)N)c2c1)CCC3 [Example 11] | 7.05
COc1cc2c(cc1F)c1c(n2C[C@H](C)N)CCC1 [Example 37] | 6.90
C[C@H](N)Cn1c2c(c3c(Cl)cccc31)CCC2 [Example 4] | 6.75
C[C@H](N)Cn1c2c(c3c(F)c(F)ccc31)CCC2 [Example 1, fumarate] | 6.57

###

biological target: h5-HT2A receptors (Homo sapiens, UniProt P28223); construct: expressed in transfected cells; host or cells: CHO cells; assay: Functional activity, FLIPR calcium assay in CHO cells expressing h5-HT2A; assay type: cell-based; settings: CHO; maximum fluorescent signal compared with 10 μM 5-HT (defined as 100%); read-out: h5-HT2A Relative Efficacy
Where a name gives a salt, the structure may show the parent alone.
Lab note - cut at 40% for Emax: 1 if strictly below, -1 if not.

Molecule | Label value
C[C@@H](N)Cn1c2c(c3ccccc31)CCC2 [Example 30] | -1
C[C@H](N)Cn1c2c(c3c(F)c(F)ccc31)CCC2 [Example 1, fumarate] | 1
COc1ccc2c3c(n(C[C@H](C)N)c2c1)CCC3 [Example 11] | 1
CC(N)Cn1c2c(c3cc(F)c(F)cc31)CCC2 (centres unmarked) [Example 33] | 1
C[C@H](N)Cn1c2c(c3cc(F)c(Cl)cc31)CCC2 [Example 16] | 1
C[C@H](N)Cn1c2c(c3c(Cl)cccc31)CCC2 [Example 4] | -1
C[C@H](N)Cn1c2c(c3ccccc31)CCC2 [Example 14] | -1
C[C@H](N)Cn1c2c(c3c(Cl)c(F)ccc31)CCC2 [Example 18] | -1
COc1c(F)ccc2c1c1c(n2C[C@H](C)N)CCC1 [Example 42] | -1
C[C@H](N)Cn1c2c(c3cc(F)ccc31)CCC2 [Example 2] | 1
COc1cc2c(cc1F)c1c(n2C[C@H](C)N)CCC1 [Example 37] | 1

Hey, just so you know, these numbers are from patent US6706750B1.
